target_under_test: BtsS (Escherichia coli, UniProt P0AD14, R99A)
Construct: BtsS-R99A-6His in membrane vesicles of E. coli MG1655 ΔbtsSRΔypdABC
Sequence (P0AD14 whole entry R99A): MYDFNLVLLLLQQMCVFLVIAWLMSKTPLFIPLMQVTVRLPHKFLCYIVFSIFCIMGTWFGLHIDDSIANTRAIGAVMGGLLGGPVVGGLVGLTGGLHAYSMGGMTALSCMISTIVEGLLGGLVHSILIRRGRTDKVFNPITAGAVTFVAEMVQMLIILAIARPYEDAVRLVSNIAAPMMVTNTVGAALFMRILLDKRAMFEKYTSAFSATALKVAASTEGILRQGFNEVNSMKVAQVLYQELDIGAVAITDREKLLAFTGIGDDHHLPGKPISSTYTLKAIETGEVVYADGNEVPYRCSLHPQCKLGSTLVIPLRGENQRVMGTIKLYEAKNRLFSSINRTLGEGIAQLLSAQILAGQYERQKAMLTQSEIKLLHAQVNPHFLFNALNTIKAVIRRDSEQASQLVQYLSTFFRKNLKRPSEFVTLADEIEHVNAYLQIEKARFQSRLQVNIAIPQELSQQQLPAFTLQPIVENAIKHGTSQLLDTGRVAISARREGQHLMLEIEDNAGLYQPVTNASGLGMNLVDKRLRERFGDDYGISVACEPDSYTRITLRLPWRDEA
method_notes: DRaCALA with […]-pyruvate and competition with cold pyruvate, membrane vesicles
reported_property: pKd
In textbook form, pKd equals minus log to base ten of the concentration in mol/L.

Name the recorded pKd for CC(=O)C(=O)O [pyruvate] .
3.61

====

target_under_test: BtsS (Escherichia coli, UniProt P0AD14, S113A)
Construct: BtsS-S113A-6His in membrane vesicles of E. coli MG1655 ΔbtsSRΔypdABC
Sequence (P0AD14 whole entry S113A): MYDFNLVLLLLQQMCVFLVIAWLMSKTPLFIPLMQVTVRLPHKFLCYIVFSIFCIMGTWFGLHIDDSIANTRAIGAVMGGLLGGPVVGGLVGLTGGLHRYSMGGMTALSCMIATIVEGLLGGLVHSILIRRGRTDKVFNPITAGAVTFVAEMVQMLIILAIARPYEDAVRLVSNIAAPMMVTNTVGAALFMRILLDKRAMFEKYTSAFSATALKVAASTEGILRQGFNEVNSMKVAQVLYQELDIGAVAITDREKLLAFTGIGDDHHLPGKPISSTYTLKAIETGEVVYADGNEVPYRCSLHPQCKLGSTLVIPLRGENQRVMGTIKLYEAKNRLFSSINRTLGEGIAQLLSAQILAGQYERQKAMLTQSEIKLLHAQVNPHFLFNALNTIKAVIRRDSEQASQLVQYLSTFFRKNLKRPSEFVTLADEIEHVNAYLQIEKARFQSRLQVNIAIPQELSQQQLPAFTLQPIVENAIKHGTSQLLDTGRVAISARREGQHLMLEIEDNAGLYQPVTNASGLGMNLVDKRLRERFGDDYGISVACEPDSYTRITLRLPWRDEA
method_notes: DRaCALA with […]-pyruvate and competition with cold pyruvate, membrane vesicles
reported_property: pKd
In textbook form, pKd equals minus log to base ten of the concentration in mol/L.

Identify the measured pKd of CC(=O)C(=O)O [pyruvate] for BtsS (Escherichia coli, UniProt P0AD14, S113A).
3.55
